# recombinant barcode read abundance (log10) values compiled below
measurement_protocol: recombinant barcode read abundance after kanamycin selection (control-corrected) (log10(CPM+1)); higher = more efficient recombination; sequences stand for … in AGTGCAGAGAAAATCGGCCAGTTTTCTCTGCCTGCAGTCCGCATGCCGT…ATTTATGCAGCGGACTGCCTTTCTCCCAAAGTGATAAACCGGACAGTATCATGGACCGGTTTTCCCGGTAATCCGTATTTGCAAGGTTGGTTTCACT; site = the 11-nt target
Field format: numeric only.

>>> measurement("GGGCGGAGGTGGGTTCTAACCTGTTGCGGAG [GGGCGGACTCC_LTGcore_GG_RTGcore_CT] (site GGGCGGACTCC) (LTG core: GG, RTG core: CT)")
0.0907
>>> measurement("AGGAGGTGGTGGGTTCTAACCTGTTGCCTCC [AGGAGGTCTAG_LTGcore_GG_RTGcore_GG] (site AGGAGGTCTAG) (LTG core: GG, RTG core: GG)")
0.0671
>>> measurement("TTATAAAGCTGGGTTCTAACCTGTTGCCTAG [TTATAAACTAG_LTGcore_GC_RTGcore_CT] (site TTATAAACTAG) (LTG core: GC, RTG core: CT)")
0.0375
>>> measurement("CATATTACTTGGGTTCTAACCTGTTGCCTAC [CATATTACTAG_LTGcore_CT_RTGcore_GT] (site CATATTACTAG) (LTG core: CT, RTG core: GT)")
1.01

Switching to the query record.
// query Item AGGAGGTCATGGGTTCTAACCTGTTGCCTAG [AGGAGGTCTAG_LTGcore_CA_RTGcore_CT] (site AGGAGGTCTAG) (LTG core: CA, RTG core: CT) : provide recombinant barcode read abundance (log10)
// result 0.207
